molecular target: K-Ras G12C (Homo sapiens, UniProt P01116, G12C); test: K-Ras G12C, SOS1, Raf RBD HTRF assay for inhibition of GTP exchange; details: 18 hours preincubation with K-Ras G12C at room temperature; SOS1-mediated GTP exchange
Sequence (P01116 2-188 isoform P01116-2 G12C): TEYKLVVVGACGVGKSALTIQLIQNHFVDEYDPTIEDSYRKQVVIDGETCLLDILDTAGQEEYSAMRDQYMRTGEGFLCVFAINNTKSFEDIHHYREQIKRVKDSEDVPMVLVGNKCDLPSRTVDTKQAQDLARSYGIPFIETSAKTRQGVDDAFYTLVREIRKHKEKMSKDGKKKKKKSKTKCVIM
pIC50: −log10 of the molar value.
measurementType: pIC50

Reference set (3 entries):
>>> result("COc1ccc(CN(Cc2ccc(OC)cc2)c2cc(C)c(I)c([C@H]3Cc4nc(OC[C@@H]5CCCN5C)nc(N5CCN(C(=O)OC(C)(C)C)C[C@@H]5C)c4C[C@@H]3C)c2F)cc1 (single isomer, unassigned) [Example 14b]")
"< 4.30"
>>> result("CN1CCC[C@H]1COc1nc2c(c(N3CCN(C(=O)/C=C/CF)[C@H](CC#N)C3)n1)CCC(c1cc(O)cc3ccccc13)C2 (single isomer, unassigned) [Example 62d]")
"> 8.00"
>>> result("C=CC(=O)N1CCN(c2nc(OC[C@@H]3CCCN3C)nc3c2C[C@@H](C)[C@H](c2nc(N)cc(C)c2C(F)(F)F)C3)[C@@H](C)C1 (single isomer, unassigned) [Example 21b]")
"> 8.00"

For the next question, use this compound.
Sample COc1ccc(CN(Cc2ccc(OC)cc2)c2cc(C)c(I)c([C@@H]3Cc4nc(OC[C@@H]5CCCN5C)nc(N5CCN(C(=O)OC(C)(C)C)C[C@@H]5C)c4C[C@H]3C)c2F)cc1 (single isomer, unassigned) [Example 14a] ; pIC50 observed: < 4.30

====

target: K-Ras G12C mutant protein (Homo sapiens, UniProt P01116, G12C); construct: K-Ras G12C (residues 2-188) and SOS1 (residues 564-1049) had N-terminal 6-His; assay: K-Ras G12C HTRF assay; settings: Table 1; unit or assay not given; several values in one cell
Sequence (P01116 2-188 isoform P01116-2 G12C): as above
pIC50: −log10 of the molar value.
This section presents molecules with their documented pIC50 values.

// known answers, use as guide
>>> result("C=CC(=O)N1CCN(c2nc(OCC3CCCN3C)nc3c2CCCC3)CC1 (stereo not drawn)")
"< 4.30"
>>> result("C=CC(=O)N1CCN(c2ncnc3c2CC(C)C(c2nc(N)cc(C)c2C(F)(F)F)C3)CC1 (single isomer, unassigned)")
"< 4.30"

Please look at the following molecule next.
// recorded pIC50 for COc1ccc(CN(Cc2ccc(OC)cc2)c2cc(C)c(I)c(C3Cc4nc(OCC5CCCN5C)nc(N5CCN(C(=O)OC(C)(C)C)CC5C)c4CC3C)c2F)cc1 (stereo not drawn) : < 4.30

====

The entries below are paired with their reported EC50.
target: K-Ras G12C (Homo sapiens, UniProt P01116, G12C); assay: Western blot assay for in cell alkylation of K-Ras G12C (HCC1171 cells); details: 18 hours at 37° C., 7 point dose response
Sequence (P01116 1-188 isoform P01116-2 G12C): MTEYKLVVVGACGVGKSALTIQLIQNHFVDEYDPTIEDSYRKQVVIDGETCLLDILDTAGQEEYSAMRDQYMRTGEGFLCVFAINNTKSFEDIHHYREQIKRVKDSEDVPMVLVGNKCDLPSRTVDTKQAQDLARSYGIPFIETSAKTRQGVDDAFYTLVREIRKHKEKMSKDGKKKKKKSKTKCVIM
Numeric answer only, unit nM assumed.

>>> quantitativeresult("C#CC[C@@H]1CN(c2nc(OC[C@@H]3CCCN3C)nc3c2C[C@@H](C)[C@H](c2cccc4c2CCC4)C3)CCN1C(=O)C=C (single isomer, unassigned) [Example 40d]")
1000
>>> quantitativeresult("C=CC(=O)N1CCN(c2nc(OC[C@@H]3COC(=O)N3C)nc3c2CC[C@H](c2cc(O)cc4ccccc24)C3)[C@@H](C)C1 (single isomer, unassigned) [Example 57c]")
830
>>> quantitativeresult("C=CC(=O)N1CCN(c2nc(OC[C@@H]3CCCN3C)nc3c2C[C@H](C)[C@@H](c2c(F)c(N)cc(C)c2C(F)(F)F)C3)[C@@H](C)C1 (single isomer, unassigned) [Example 12a]")
1100

Next, consider the following molecule.
Lab book: EC50 of C=CC(=O)N1CCN(c2nc(OC[C@@H]3CCCN3C)nc3c2C[C@H](C)[C@@H](c2nc(N)ccc2C(F)(F)F)C3)[C@@H](C)C1 (single isomer, unassigned) [Example 41a] noted as 880

====

target: K-Ras G12C (Homo sapiens, UniProt P01116, G12C); assay: K-Ras G12C, SOS1, Raf RBD HTRF assay for inhibition of GTP exchange; conditions: 18 hours preincubation with K-Ras G12C at room temperature; SOS1-mediated GTP exchange
measurementType: pIC50
Recall that pIC50 is obtained by taking minus log10 of the concentration measured in molar.

Solved entries:
>>> quantitativeresult("CN1CCC[C@H]1COc1nc2c(c(N3CCN(C(=O)/C=C/CF)[C@@H](CC#N)C3)n1)CC[C@H](c1cc(O)cc3ccccc13)C2 (single isomer, unassigned) [Example 62c]")
7.14
>>> quantitativeresult("C=CC(=O)N1CCN(c2nc(OCC3CCC(=O)N3)nc3c2CCC(c2cc(O)cc4ccccc24)C3)[C@@H](C)C1 (stereo partly drawn) [Example 55a]")
5.85

With those in mind, consider the next molecule.
Please fill in: pIC50 reported for C=CC(=O)N1CCN(c2nc(OC[C@@H]3CCCN3C)nc3c2C[C@H](C)[C@@H](c2nc(N)cc(C)c2C(F)(F)F)C3)CC1 (single isomer, unassigned) [Example 20b] = 5.85

====

log10 of IC50 reference
target: K-Ras G12C (Homo sapiens, UniProt P01116, G12C); test: K-Ras G12C, SOS1, Raf RBD HTRF assay for inhibition of GTP exchange; details: 18 hours preincubation with K-Ras G12C at room temperature; SOS1-mediated GTP exchange
Note: values are log10 of IC50 expressed in nM.

>>> quantitativeresult("CNC/C=C/C(=O)N1CCN(c2ncnc3c2C[C@@H](C)[C@H](c2c(C)ccc4[nH]ncc24)C3)CC1 (single isomer, unassigned) [Example 19a]")
2.97

log10 of IC50 recorded for this compound, C=CC(=O)N1CCN(c2ncnc3c2CCC(c2nc(N)cc(C)c2C(F)(F)F)C3)CC1 (stereo not drawn) , is 2.43

So, CN1CCC[C@H]1COc1nc2c(c(N3CCN(C(=O)/C=C/CNC45CC(C4)C5)[C@@H](CC#N)C3)n1)CCC(c1cccc3ccccc13)C2 (stereo partly drawn) [Example 48a] ? Its log10 of IC50 was 1.04

So, C=CC(=O)N1CCN(c2ncnc3c2C[C@@H](C)[C@H](c2nc(N)cc(C)c2C(F)(F)F)C3)CC1 (single isomer, unassigned) ? Its log10 of IC50 was 1.65

Quick note, log10 of IC50 for C=CC(=O)N1CCN(c2ncnc3c2C[C@H](C)[C@@H](c2nc(N)cc(C)c2C(F)(F)F)C3)CC1 (single isomer, unassigned) landed at 3.54

// field: log10 of IC50; key: C=CC(=O)N1CCN(c2ncnc3c2CC[C@@H](c2nc(N)cc(C)c2C(F)(F)F)C3)CC1 [Example 26b] ; value = 3.68

Consider C=CC(=O)N1CCN(c2ncnc3c2CC[C@H](c2c(F)c(N)cc(F)c2C(F)(F)F)C3)CC1 (single isomer, unassigned) [Example 13b] . Its measured log10 of IC50 is 1.92

# compound C=CC(=O)N1CCN(c2nc(OC[C@@H]3CCCN3C)nc3c2C[C@H](C)[C@@H](c2nc(N)ccc2C(F)(F)F)C3)[C@@H](C)C1 (single isomer, unassigned) [Example 41a] ; its log10 of IC50 = 2.70

====

Entries and their IC50
Target: K-Ras G12C (Homo sapiens, UniProt P01116, G12C)
Assay: K-Ras G12C, SOS1, Raf RBD HTRF assay for inhibition of GTP exchange
Settings: 18 hours preincubation with K-Ras G12C at room temperature; SOS1-mediated GTP exchange
Experimental: K-Ras G12C, SOS1, Raf RBD Homogeneous Time Resolved Fluorescence (HTRF) Assay for Inhibition of GTP Exchange After 18 hours at room temperature, the SOS1 GTP exchange factor (1.67 nM during exchange, 1.25 nM final) was added to initiate nucleotide exchange to GTP (200 μM during exchange, 150 μM final). […] After 2 hours, the ratio of 665 nm to 615 nm emission with 320 nm excitation was measured on an Envision plate reader (Perkin Elmer). […]

>>> result("C=CC(=O)N1CCC(C#N)(c2nc(OC[C@@H]3CCCN3C)nc3c2CCC(c2cc(O)cc4ccccc24)C3)CC1 (some centres unmarked)")
"87 nM"
>>> result("C=C(F)C(=O)N1CCN(c2nc(OC[C@@H]3CCCN3C)nc3c2CCC(c2cccc4ccccc24)C3)CC1CC#N (single isomer, unassigned) [Example 47c]")
"130 nM"
>>> result("C=CC(=O)N1CCN(c2nc(OC[C@@H]3CCCN3C)nc3c2CC[C@@H](c2cc(O)cc4ccccc24)C3)[C@@H](C)C1 (single isomer, unassigned) [Example 28a]")
"130 nM"
>>> result("C=CC(=O)N1CCN(c2ncnc3c2CC[C@@H](c2nc(N)ccc2C(F)(F)F)C3)CC1 (single isomer, unassigned) [Example 46a]")
"2000 nM"

For record C=CC(=O)N1CCN(c2nc(OC[C@@H]3CCCN3C)nc3c2CC[C@H](c2cc(O)cc4ccccc24)C3)[C@@H](C)C1 (single isomer, unassigned) [Example 28b] the listed IC50 is < 10 nM

// IC50 value for C=CC(=O)N1CCN(c2nc(OC[C@@H]3CCCN3C)nc3c2CC[C@@H](c2cc(O)cc4ccccc24)C3)C[C@H]1CC#N (single isomer, unassigned) [Example 58e] : 29 nM

Measured IC50 of C=CC(=O)N1CCN(c2nc(OCC[C@@H]3CCCN3C)nc3c2CCC(c2cc(O)cc4ccccc24)C3)CC1 (some centres unmarked) [Example 52a] : 51 nM

get_value(item= C=CC(=O)N1CCN(c2nc(OC[C@@H]3CCCN3C)nc3c2CCCC3)CC1 [Example 45a] , readout=IC50) returns > 50000 nM
